# protocol details: physchem
# setup conditions: water
# Description: Using the Stokes-Einstein equation as a simple model, diffusion coefficients are approximately proportional to the molecular weight of a species raised to the −⅓ power. Thus, individual molecules or micelles, which are low in molecular weight, tend to diffuse much faster than microspheres or nanoparticles, which are much higher in molecular weight.
value type: solubility (µg/mL)
API: value field is a number in µg/mL; no unit string.

Entry under review: CO[C@H]1C[C@@H]2CC[C@@H](C)[C@@](O)(O2)C(=O)C(=O)N2CCCC[C@H]2C(=O)O[C@H]([C@H](C)C[C@@H]2CC[C@H](n3cnnn3)[C@H](OC)C2)CC(=O)[C@H](C)/C=C(\C)[C@@H](O)[C@@H](OC)C(=O)[C@H](C)C[C@H](C)/C=C/C=C/C=C/1C [Zotarolimus, zotarolimus] . Reported solubility? 0.5
